biological target: AdoMet-DC from MRC5 Cells (Homo sapiens, UniProt P17707); construct: Effect of Compounds on AdoMet-DC from MRC5 Cells; endogenous in cells; assay: Effect of compounds on AdoMet-DC from MRC5 cells (crude enzyme preparation); settings: AdoMet 30 μM, read-out: ID50 (the source's name)
Sequence (P17707 68-334 limits assumed): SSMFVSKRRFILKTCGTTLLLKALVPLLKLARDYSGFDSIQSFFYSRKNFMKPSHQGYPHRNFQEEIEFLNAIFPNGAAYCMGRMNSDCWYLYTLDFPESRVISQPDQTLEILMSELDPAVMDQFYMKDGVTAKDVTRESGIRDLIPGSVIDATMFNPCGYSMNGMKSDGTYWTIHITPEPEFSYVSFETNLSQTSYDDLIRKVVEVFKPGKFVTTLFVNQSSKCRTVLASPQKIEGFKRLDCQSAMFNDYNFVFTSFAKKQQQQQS
Sequence (P17707 1-67 limits assumed): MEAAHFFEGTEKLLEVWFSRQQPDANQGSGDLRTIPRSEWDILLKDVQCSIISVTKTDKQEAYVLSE
pIC50: −log10 of the molar value.
Collected pIC50 values appear next to each entry.
RESULT TYPE: pIC50

>>> print(df.to_string())
                                   molecule                         system_under_test  result_type  data_value
0  CN(CCCNN)C[C@H]1O[C@@H](n2cnc3c(N)ncnc32)[C@H](O)[C@@H]1O [Compound 25]  AdoMet-DC from MRC5 Cells (Homo sapiens, UniProt P17707)        pIC50        8.10
1  CN(CCCNC(=S)NN)C[C@H]1O[C@@H](n2cnc3c(N)ncnc32)[C@@H]2OC(C)(C)O[C@@H]21 [Compound 22]  AdoMet-DC from MRC5 Cells (Homo sapiens, UniProt P17707)        pIC50        5.74
2  CN(CCNC(=O)NN)C[C@H]1O[C@@H](n2cnc3c(N)ncnc32)[C@H](O)[C@@H]1O [Compound 16, sesquisulfate dihydrate]  AdoMet-DC from MRC5 Cells (Homo sapiens, UniProt P17707)        pIC50        6.22
